assay-explanation: Acute toxicity, determination of the lethal dose in the mouse
experimental-context: in vivo, po, 1000 mg/kg p.os., read-out: Percent toxicity (animals which die in 72 hours)
Kindly state mortality at 72 h for each of the entries shown.
Give bare numbers, in %.

>>> reported_result("CC1CC(Cc2c(F)cccc2Cl)NC1=O (centres unmarked) [SR 42004]")
0
>>> reported_result("CC1CC(Cc2ccccc2F)NC1=O (centres unmarked) [SR 41881]")
100
>>> reported_result("CC1(C)CC(Cc2ccc(Cl)cc2Cl)NC1=O (centres unmarked) [SR 42508]")
0
>>> reported_result("CC1(C)CC(Cc2ccc(F)cc2)NC1=O (centres unmarked) [SR 41293]")
80
>>> reported_result("O=C1CCC(Cc2ccccc2)N1 (centres unmarked) [Compound A, 5-phenylmethyl 2-pyrrolidinone, reference compound]")
60

Please state mortality at 72 h for every compound in the list that follows.
1. Cc1ccc(CC2CC(C)(C)C(=O)N2)cc1 (centres unmarked) [SR 42003]
2. CC1CC(Cc2ccc(Cl)cc2Cl)NC1=O (centres unmarked) [SR 41676]
3. CCC1(C)CC(Cc2ccc(F)cc2)NC1=O (centres unmarked) [SR 42002]

**A:**
1: 0; 2: 0; 3: 100

Please state mortality at 72 h for every compound in the list that follows.
1. CC1CC(Cc2cccc(Cl)c2)NC1=O (centres unmarked) [SR 42717]
2. CCCCC1([Si](C)(C)C)CC(Cc2ccccc2)NC1=O (centres unmarked) [SR 42133]
3. CCC1(C)CC(Cc2ccccc2F)NC1=O (centres unmarked) [SR 42001]
4. CC1(C)CC(Cc2cccc(C(F)(F)F)c2)NC1=O (centres unmarked) [SR 42725]
5. C[Si](C)(C)C1CC(Cc2ccccc2)NC1=O (centres unmarked) [SR 42134]
6. CC1CC(Cc2ccccc2Cl)NC1=O (centres unmarked) [SR 41678]
7. CC1CC(Cc2ccc(F)cc2)NC1=O (centres unmarked) [SR 41882]

**A:**
[100, 0, 20, 0, 0, 60, 100]

Please state mortality at 72 h for every compound in the list that follows.
1. CC1(C)CC(Cc2ccccc2Cl)NC1=O (centres unmarked) [SR 41880]
2. CC(C)C1CC(Cc2ccc(Cl)cc2)NC1=O (centres unmarked) [SR 42726]

**A:**
1. 20
2. 20

Numbers sourced from patent US4604383A.
